- Organism: Rattus norvegicus
- protocol notes: DrugMatrix - Regimen: Daily Repeat
- Type: toxicity, organism-based, Sprague-Dawley
- Set-up: regimen Daily Repeat, gender Male, age 6-8 weeks
- cond: in vivo, po, 0 mg/kg, 72 h, tissue Blood, route oral GAVAGE, dose level Control, time 3 day, vehicle 100 % WATER
metric: ABSOLUTE LYMPHOCYTE
Enter the number, and then the unit.

Study these solved cases before continuing.
{"molecule": "Cn1cnc([N+](=O)[O-])c1Sc1ncnc2nc[nH]c12", "result": "14108.83 CELLS/uL"}
{"molecule": "NNC(=O)c1ccncc1", "result": "10225.67 CELLS/uL"}
{"molecule": "Cc1cc(NS(=O)(=O)c2ccc(N)cc2)no1", "result": "12758 CELLS/uL"}
{"molecule": "NC(=O)c1ncn([C@@H]2O[C@H](CO)[C@@H](O)[C@H]2O)n1", "result": "13599.5 CELLS/uL"}
{"molecule": "COc1ccc(C(CN(C)C)C2(O)CCCCC2)cc1 (centres undefined)", "result": "12758 CELLS/uL"}
{"molecule": "COc1cccc(C2(O)CCCCC2CN(C)C)c1 (centres undefined)", "result": "9305.83 CELLS/uL"}

Query: Requested read-out: ABSOLUTE LYMPHOCYTE. Entry: O=C1NC(=O)C(c2ccccc2)(c2ccccc2)N1
Response: 12677.83 CELLS/uL

Query: Requested read-out: ABSOLUTE LYMPHOCYTE. Entry: CN1CCC[C@H]1c1cccnc1
Response: 10386.33 CELLS/uL

Query: Requested read-out: ABSOLUTE LYMPHOCYTE. Entry: CNCCC=C1c2ccccc2CCc2ccccc21
Response: 12677.83 CELLS/uL

----------
Entries and their LYMPHOCYTE
- Organism: Rattus norvegicus
- protocol notes: DrugMatrix - Regimen: Daily Repeat
- Assay type: toxicity, organism-based, Sprague-Dawley
- Set-up: regimen Daily Repeat, gender Male, age 6-8 weeks
- cond: in vivo, po, 0 mg/kg, 120 h, tissue Blood, route oral GAVAGE, dose level Control, time 5 day, vehicle .5 % CMC
Report the value in % with no unit label.

Query: Requested read-out: LYMPHOCYTE. Entry: CCc1ccc(C(=O)C(C)CN2CCCCC2)cc1 (stereo not given) [EPERISONE]
Response: 89

Query: Requested read-out: LYMPHOCYTE. Entry: NCC(=O)O [GLYCINE]
Response: 83.33

Query: Requested read-out: LYMPHOCYTE. Entry: CCOC(=O)OC(C)OC1=C(C(=O)Nc2ccccn2)N(C)S(=O)(=O)c2ccccc21 (stereo not given) [AMPIROXICAM]
Response: 90.33

Query: Requested read-out: LYMPHOCYTE. Entry: C[C@]12CCC(=O)C=C1CC[C@@H]1[C@@H]2C(=O)C[C@@]2(C)[C@H]1CC[C@]2(O)C(=O)CO [CORTISONE]
Response: 80.83

Query: Requested read-out: LYMPHOCYTE. Entry: Brc1ccccc1 [BROMOBENZENE]
Response: 90.33

Query: Requested read-out: LYMPHOCYTE. Entry: CC(C)[C@H](N)C(=O)OCCOCn1cnc2c(=O)[nH]c(N)nc21 [VALACYCLOVIR]
Response: 90.83

Query: Requested read-out: LYMPHOCYTE. Entry: COc1c(C)c2c(c(O)c1C/C=C(\C)CCC(=O)OCCN1CCOCC1)C(=O)OC2 [MYCOPHENOLATE MOFETIL]
Response: 88.33
